Experiment: RP, Restek Raptor Biphenyl, 100 × 2.1 mm, 2.7 µm, 50 °C, 0.4 mL/min, estimated dead time 0.55 min; A: water + 0.1% formic acid, pH 3; B: methanol + 0.1% formic acid, pH 3; gradient (min/%B) 0/5 1.12/5 6.41/99.5 10.01/99.5
Conditions: stereoisomer not certain
MEASURED QUANTITY: LC retention time (min)

Consider the following illustrative entries.
CC=C(C)C(=O)NCC(=O)O [Tiglyl Glycine]; 2.95
CSc1ncnc2nc[nH]c12 [THIOPURINE S-METHYLETHER]; 3.77
CCCCCCCCCCCCCCCCCC[n+]1cccc(S(=O)(=O)[O-])c1 [C18-APS]; 6.52
O=C(Nc1ccccc1)Nc1ccnc(Cl)c1 [Forchlorfenuron]; 5.17
O=C1CCCCO1 [5-VALEROLACTONE]; 2.44

(I) CCCCCCCCCC=CC(=O)OC(CC(=O)[O-])C[N+](C)(C)C [trans-2-Dodecenoyl-L-carnitine]
(II) O=C(O)c1cccnc1C(=O)O [QUINOLINATE]
## Input Sorting by LC retention time in descending order, would I or II appear first? // respond with label for picked entry
## Output I
(I: 5.46 min, II: 1 min)

(a) CC(CCC(=O)O)C1CCC2C3C(=O)CC4CC(=O)CCC4(C)C3CC(=O)C12C (stereo not drawn) [Dehydrocholic acid]
(b) Nc1nc2c(ncn2C2OC(CO)C(O)C2O)c(=O)[nH]1 (stereo not drawn) [GUANOSINE]
(c) Cc1ncc2c(c1O)C(=O)OC2 [4-Pyridoxolactone]
(d) O=C(O)CCCCCCC(O)CC(=O)O (stereo not drawn) [3-Hydroxy Sebacic Acid]
(e) NC(=O)c1ccc[n+](C2OC(COP(=O)([O-])OP(=O)(O)OCC3OC(n4cnc5c(N)ncnc54)C(OP(=O)(O)O)C3O)C(O)C2O)c1 (stereo not drawn) [NADP]
## Input Sort by LC retention time, descending. Sort the labels as requested; that list is your answer.
## Output a, d, c, b, e
(a: 6.13 min, d: 3.95 min, c: 2.25 min, b: 1.15 min, e: 0.746 min)

(I) CCCCCCCCCCCCC(O)C(=O)O (stereo not drawn) [2-Hydroxytetradecanoic acid]
(II) O=C(O)C=C(CC(=O)O)C(=O)O [cis-Aconitic acid]
## Input Could you check which of I and II has a smaller value for LC retention time? Select an item and report its label.
## Output II
(II: 0.818 min, I: 6.09 min)

* * *

Experiment: RP, Restek Raptor Biphenyl, 100 × 2.1 mm, 2.7 µm, 50 °C, 0.4 mL/min, estimated dead time 0.55 min; A: water + 0.1% formic acid, pH 3; B: methanol + 0.1% formic acid, pH 3; gradient (min/%B) 0/5 1.12/5 6.41/99.5 10.01/99.5
Details: stereoisomer not certain
MEASURED QUANTITY: LC retention time (min)

(A) CC(=O)NC(Cc1c[nH]c2ccccc12)C(=O)O (centres undefined)
(B) Nc1nc2c(ncn2C2OC3COP(=O)(O)OC3C2O)c(=O)[nH]1 (centres undefined)
(C) CCCC(C(=O)O)C(O)C(=O)O (centres undefined)
## Input Rank the 3 compounds: largest LC retention time first, smallest last. Returns: the labels listed in the requested order.
## Output A, C, B
(A: 4.12 min, C: 2.81 min, B: 1.14 min)

(P) Cn1c(=O)c2[nH]cnc2n(C)c1=O
(Q) Nc1ncnc2c1ncn2C1CC(O)C(COP(=O)(O)O)O1 (centres undefined) [DEOXYADENOSINE MONOPHOSPHATE]
## Input Given P and given Q , which shows the smaller recorded LC retention time? Give the chosen item's label as your response.
## Output Q
(Q: 0.818 min, P: 3.54 min)
